Ref: the Immune Epitope Database (IEDB)

Hi there, I'd appreciate the recorded pIC50 for every entry that follows.
biological target: HLA-A*02:03; experiment: IEDB peptide-MHC binding, purified MHC/competitive/radioactivity; bounds were set here for any values at or beyond the usual limits of such assays; conditions: source organism: Vaccinia virus WR
Numbers only, as −log10 of the molar value.

Example cases with answers are listed next.
FLDWIKDIM :: 6.53
RIITILQDIV :: 6.68

Answer for every listed entry: what is its pIC50? The entries follow.
1. YIEDELRRAA
2. MLKLFTHDIM

6.78
7.03

---

target: HLA-A*02:01; assay: IEDB peptide-MHC binding, purified MHC/competitive/radioactivity; bounds were set here for any values at or beyond the usual limits of such assays; conditions: source organism: Vaccinia virus WR
What pIC50 was measured for each of the following?
Give bare numbers, as −log10 of the molar value.

LLSLFSTLV :: 7.92
LISILMIFI :: 5.89

Take each entry in turn and give its pIC50.
1. LLVAPMPTA
2. KLVSISNFI
3. FMYFCEQKL
4. ILPCPQINTL

1. 7.89
2. 8.20
3. 8.72
4. 5.86

List pIC50 for every entry below, keeping the order given.
1. STSPTRTWKV
2. LVMDKNHAI

1. 6.13
2. 6.49

For each of the sequences below, state pIC50.
1. AIFNNRNLA
2. KLKVDSDSGL

[5.50, 5.63]

For each of the sequences below, note its pIC50.
1. RLSTEERHI
2. SIRLELVNLI

1: 6.15; 2: 5.66

---

molecular target: HLA-A*02:02; test: IEDB peptide-MHC binding, cellular MHC/competitive/fluorescence; bounds were set here for any values at or beyond the usual limits of such assays; settings: source organism: Vaccinia virus WR
Please go through the items and note down their pIC50.
Answers are plain numbers, as −log10 of the molar value.

Previously resolved entries follow.
NMDKVSAQNI :: 5.10
NINIEVKLFI :: 4.90
NISFKSINKV :: 4.69
RASTTENAA :: 4.57
YVSSSYKDI :: 5.30
DIVSDSKKIM :: 4.60
ELEKCTSEI :: 4.68

Now examine the next entry.
For record ILSEKRKDTI the listed pIC50 is 4.36

---

Provide the recorded IC50 for the entries that follow.
molecular target: HLA-A*02:03; assay: IEDB peptide-MHC binding, cellular MHC/competitive/fluorescence; bounds were set here for any values at or beyond the usual limits of such assays; conditions: source organism: Vaccinia virus WR

Observe how each entry below is paired with its result.
IASAPQQLCT :: ≥ 70 µM
TQLFKYVPSA :: ≥ 70 µM

Moving on to another sequence below.
In plain terms, LIISTDQDT has a documented IC50 of ≥ 70 µM

---

target: HLA-A*02:01; experiment: IEDB peptide-MHC binding, purified MHC/competitive/radioactivity; bounds were set here for any values at or beyond the usual limits of such assays; conditions: source organism: Vaccinia virus WR
experimental-readout: IC50 (nM)
One number for each entry, in nM.

// known answers, use as guide
YMATTILEMV :: 1.5
HLNPSRIRI :: 956
ALAEHISDSI :: 8.7

Please supply IC50 for each of the following items, keeping them in order.
1. YLFTFTIYT
2. SMHFYGWSL
3. YVLLHLLVV
4. ILPDKIDGL
5. YQMLLALVAL

[3.3, 192, 101, 62, 1.5]
